- TARGET OR TEST SYSTEM: geranylgeranyltransferase type-I (Rattus norvegicus, UniProt P53610+Q04631)
- EXPERIMENTAL DETAILS: Inhibition of rat brain GGTase1 assessed as decrease in transfer of [3H]H]geranylgeranyl from [3H]geranylgeranyl PPi to H-Ras-CVLL after 30 mins by liquid scintillation counting method
pIC50: −log10 of the molar value.
MEASURE NAME: pIC50

Given item NC(=O)N1CCC(CC(=O)N2CCC([C@H]3c4ncc(Br)cc4CCc4cc(Cl)cc(Br)c43)CC2)CC1 [LONAFARNIB] , the value recorded as its pIC50 is < 6.00

---

- TARGET OR TEST SYSTEM: SUMO-activating enzyme (Homo sapiens, UniProt Q9UBT2)
- Sequence (Q9UBE0 whole entry): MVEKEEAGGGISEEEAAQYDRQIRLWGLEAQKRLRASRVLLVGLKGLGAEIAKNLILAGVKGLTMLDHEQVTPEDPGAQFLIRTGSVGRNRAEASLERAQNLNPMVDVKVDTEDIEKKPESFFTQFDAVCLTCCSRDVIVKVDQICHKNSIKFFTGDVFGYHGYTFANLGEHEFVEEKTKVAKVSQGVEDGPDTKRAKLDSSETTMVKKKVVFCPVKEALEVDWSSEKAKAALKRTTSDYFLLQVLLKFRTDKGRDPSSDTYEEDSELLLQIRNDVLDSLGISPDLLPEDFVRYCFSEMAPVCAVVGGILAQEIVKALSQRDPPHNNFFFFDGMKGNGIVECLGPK
- Sequence (Q9UBT2 whole entry): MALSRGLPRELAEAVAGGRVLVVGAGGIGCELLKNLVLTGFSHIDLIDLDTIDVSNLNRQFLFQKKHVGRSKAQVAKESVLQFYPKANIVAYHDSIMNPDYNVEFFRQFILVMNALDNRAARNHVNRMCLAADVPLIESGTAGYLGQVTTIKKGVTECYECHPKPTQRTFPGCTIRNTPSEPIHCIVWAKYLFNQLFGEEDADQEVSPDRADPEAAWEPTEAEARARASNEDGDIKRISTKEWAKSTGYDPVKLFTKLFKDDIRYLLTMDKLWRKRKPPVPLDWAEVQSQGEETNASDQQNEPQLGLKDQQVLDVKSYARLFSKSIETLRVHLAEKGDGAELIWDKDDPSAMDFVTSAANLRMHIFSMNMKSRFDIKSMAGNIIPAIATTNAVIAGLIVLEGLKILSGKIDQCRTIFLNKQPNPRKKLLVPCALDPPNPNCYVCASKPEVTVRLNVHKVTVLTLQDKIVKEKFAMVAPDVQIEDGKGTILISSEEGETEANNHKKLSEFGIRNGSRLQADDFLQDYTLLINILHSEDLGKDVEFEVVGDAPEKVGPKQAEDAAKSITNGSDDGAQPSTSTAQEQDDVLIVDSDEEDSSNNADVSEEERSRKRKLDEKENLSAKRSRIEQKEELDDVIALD
- EXPERIMENTAL DETAILS: Inhibition of SAE (unknown origin) assessed as decrease in formation of E2-UBL thioester reaction product
pIC50: −log10 of the molar value.
MEASURE NAME: pIC50

Short answer for NS(=O)(=O)OC[C@@H]1C[C@@H](n2ccc3c(N[C@H]4CCc5ccccc54)ncnc32)C[C@@H]1O : pIC50 was < 6.00

---

- TARGET OR TEST SYSTEM: Geranylgeranyl transferase type I (Homo sapiens, UniProt P49354+P53609)
- EXPERIMENTAL DETAILS: Inhibition of GGTase1 (unknown origin) expressed in mouse NIH-3T3 cells transfected with k-Ras4B assessed as decrease in geranylgeranylation of k-Ras4B after 24 hrs by chemoluminescence assay
- Assay type: cell-based
MEASURE NAME: IC50 (µM)
# number only, unit µM dropped from output

Geranylgeranyl transferase type I (Homo sapiens, UniProt P49354+P53609) assay, compound COC(=O)[C@H](CC(C)C)NC(=O)c1ccc(NC[C@@H](N)CS)cc1-c1ccccc1 , recorded IC50 = 2

---

- TARGET OR TEST SYSTEM: Geranylgeranyl transferase type I (Homo sapiens, UniProt P49354+P53609)
- EXPERIMENTAL DETAILS: Inhibition of GGTase1 (unknown origin)
- Format: protein-complex assay
MEASURE NAME: IC50

Reported IC50 ( COC(=O)[C@H](CCSC)NC(=O)CN1C[C@H](N(C)C(=O)[C@H](N)CS)N=C(c2ccccc2)c2ccccc21 ) = > 1000 nM

---

- TARGET OR TEST SYSTEM: Protein O-GlcNAcase (Rattus norvegicus, UniProt Q8VIJ5)
- EXPERIMENTAL DETAILS: Inhibition of O-GlcNAcase in rat PC12 cells assessed as induction of OGlcNAcylation after 24 hrs by Western blot method
MEASURE NAME: pEC50
Schema: pEC50 number; meaning minus log10 of the concentration expressed in molar units.

Consider CCNC1=N[C@@H]2[C@@H](O)[C@H](O)[C@@H](CO)O[C@@H]2S1 . Its measured pEC50 is 7.52

---

- TARGET OR TEST SYSTEM: Serine/threonine-protein kinase B-raf (Homo sapiens)
- Sequence (P15056 whole entry): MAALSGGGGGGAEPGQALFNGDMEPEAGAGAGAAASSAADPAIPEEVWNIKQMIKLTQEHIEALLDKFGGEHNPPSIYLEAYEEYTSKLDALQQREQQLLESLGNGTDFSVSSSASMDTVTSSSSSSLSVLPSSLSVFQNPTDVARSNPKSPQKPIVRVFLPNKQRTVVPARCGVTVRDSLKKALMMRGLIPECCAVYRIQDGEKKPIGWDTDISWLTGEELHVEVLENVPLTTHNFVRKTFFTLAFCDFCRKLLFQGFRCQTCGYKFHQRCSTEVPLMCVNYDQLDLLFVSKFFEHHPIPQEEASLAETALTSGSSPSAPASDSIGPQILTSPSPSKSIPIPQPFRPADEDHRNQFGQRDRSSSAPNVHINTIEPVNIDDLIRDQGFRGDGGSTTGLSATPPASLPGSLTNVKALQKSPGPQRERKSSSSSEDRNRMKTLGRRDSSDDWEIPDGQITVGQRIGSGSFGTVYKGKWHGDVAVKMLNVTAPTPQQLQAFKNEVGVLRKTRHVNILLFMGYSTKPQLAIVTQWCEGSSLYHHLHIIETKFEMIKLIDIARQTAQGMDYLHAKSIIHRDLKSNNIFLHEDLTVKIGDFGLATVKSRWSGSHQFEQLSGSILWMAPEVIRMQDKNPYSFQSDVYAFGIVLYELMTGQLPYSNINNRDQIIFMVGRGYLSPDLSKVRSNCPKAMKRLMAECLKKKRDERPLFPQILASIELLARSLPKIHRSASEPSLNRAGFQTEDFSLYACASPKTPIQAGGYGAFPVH
- EXPERIMENTAL DETAILS: Inhibition of BRAF (unknown origin) using MEK1 K97R mutant as substrate preincubated for 60 to 120 mins followed by substrate addition measured after 2 hrs by TR-FRET assay
MEASURE NAME: pIC50
Reminder that pIC50 is minus the log10 of a molar concentration.

Value of pIC50 reported for the compound O=C1CCc2c(Oc3ccc4c(c3)[C@@H]3[C@H](O4)[C@H]3c3nc4ccc(C(F)(F)F)cc4[nH]3)ccnc2N1 [LIFIRAFENIB] is 7.64

---

- TARGET OR TEST SYSTEM: Protein farnesyltransferase (Homo sapiens, UniProt P49354+P49356)
- EXPERIMENTAL DETAILS: Inhibition of FTase (unknown origin)
- Assay type: protein-complex assay
MEASURE NAME: pIC50
Notebook: values listed as pIC50 are -log10 of the concentration (mol/L).

Value of measured pIC50 for the entry COC(=O)[C@H](CCSC)NC(=O)CN1C[C@H](N(C)C(=O)[C@H](N)CS)N=C(c2ccccc2)c2ccccc21 : 7.39

---

- TARGET OR TEST SYSTEM: Sharpin/RBCK1/RNF31 (Homo sapiens, UniProt Q96EP0+Q9BYM8+Q9H0F6)
- Sequence (Q9H0F6 whole entry): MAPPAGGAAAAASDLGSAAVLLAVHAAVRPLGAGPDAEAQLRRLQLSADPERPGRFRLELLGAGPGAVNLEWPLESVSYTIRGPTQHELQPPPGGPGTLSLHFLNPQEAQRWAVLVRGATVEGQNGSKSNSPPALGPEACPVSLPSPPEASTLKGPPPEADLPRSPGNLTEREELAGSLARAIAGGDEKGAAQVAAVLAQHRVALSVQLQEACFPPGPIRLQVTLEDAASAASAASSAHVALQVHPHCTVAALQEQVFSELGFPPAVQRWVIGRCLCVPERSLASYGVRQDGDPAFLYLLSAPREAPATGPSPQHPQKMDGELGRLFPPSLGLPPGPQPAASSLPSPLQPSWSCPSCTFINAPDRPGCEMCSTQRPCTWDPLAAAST
- Sequence (Q9BYM8 whole entry): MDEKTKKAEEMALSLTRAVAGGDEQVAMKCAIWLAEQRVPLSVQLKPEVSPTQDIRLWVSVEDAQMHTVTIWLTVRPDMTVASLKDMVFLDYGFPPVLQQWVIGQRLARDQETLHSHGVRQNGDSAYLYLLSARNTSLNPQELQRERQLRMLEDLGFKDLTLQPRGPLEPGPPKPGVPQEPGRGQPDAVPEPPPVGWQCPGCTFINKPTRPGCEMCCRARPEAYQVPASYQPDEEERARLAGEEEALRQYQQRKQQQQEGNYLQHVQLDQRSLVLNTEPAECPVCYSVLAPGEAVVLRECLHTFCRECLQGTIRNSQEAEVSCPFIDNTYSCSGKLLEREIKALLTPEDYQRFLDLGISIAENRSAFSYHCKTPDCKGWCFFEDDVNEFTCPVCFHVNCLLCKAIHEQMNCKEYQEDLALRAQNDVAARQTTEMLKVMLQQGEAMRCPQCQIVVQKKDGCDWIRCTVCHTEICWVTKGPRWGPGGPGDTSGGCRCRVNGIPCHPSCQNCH
- Sequence (Q96EP0 whole entry): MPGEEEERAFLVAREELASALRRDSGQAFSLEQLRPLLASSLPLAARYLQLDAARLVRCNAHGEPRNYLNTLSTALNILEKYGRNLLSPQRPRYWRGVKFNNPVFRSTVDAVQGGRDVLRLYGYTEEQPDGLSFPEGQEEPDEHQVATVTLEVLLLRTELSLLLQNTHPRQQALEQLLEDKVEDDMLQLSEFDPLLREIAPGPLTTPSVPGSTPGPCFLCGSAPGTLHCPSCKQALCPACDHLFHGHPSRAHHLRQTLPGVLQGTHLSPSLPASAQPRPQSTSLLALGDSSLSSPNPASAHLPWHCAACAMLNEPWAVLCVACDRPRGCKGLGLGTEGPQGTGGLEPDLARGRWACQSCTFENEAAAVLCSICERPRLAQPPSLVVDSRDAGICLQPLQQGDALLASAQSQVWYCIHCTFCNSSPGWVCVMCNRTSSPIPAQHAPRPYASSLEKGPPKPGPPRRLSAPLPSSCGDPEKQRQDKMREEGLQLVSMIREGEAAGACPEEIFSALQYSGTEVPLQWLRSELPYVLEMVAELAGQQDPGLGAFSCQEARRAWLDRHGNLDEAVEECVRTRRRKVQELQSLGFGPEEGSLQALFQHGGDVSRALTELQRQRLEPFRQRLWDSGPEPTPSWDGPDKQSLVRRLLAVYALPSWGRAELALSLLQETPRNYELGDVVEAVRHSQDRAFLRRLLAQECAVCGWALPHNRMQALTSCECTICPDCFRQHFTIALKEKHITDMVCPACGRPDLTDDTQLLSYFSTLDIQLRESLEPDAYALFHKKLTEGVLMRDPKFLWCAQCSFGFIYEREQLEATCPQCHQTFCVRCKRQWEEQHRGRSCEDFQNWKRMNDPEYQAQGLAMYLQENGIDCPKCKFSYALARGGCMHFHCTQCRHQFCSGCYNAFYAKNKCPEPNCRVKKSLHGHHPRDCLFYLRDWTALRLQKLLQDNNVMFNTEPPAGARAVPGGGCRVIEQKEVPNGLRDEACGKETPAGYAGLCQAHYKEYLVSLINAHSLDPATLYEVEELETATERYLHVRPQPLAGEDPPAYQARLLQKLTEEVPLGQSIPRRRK
- EXPERIMENTAL DETAILS: Inhibition of petit-LUBAC (unknown origin)-mediated ubiquitylation expressed in Escherichia coli BL21 after 2 hrs in presence of E1, UbcH5c, E3 and ubiquitin
MEASURE NAME: IC50 (nM)
Output spec: scalar in nM, unitless text.

The compound listed as CN1C(=O)[C@]23CC4=CC=C[C@H](O)[C@H]4N2C(=O)[C@@]1(CO)SS3 [GLIOTOXIN] shows IC50 equal to 510

---

- TARGET OR TEST SYSTEM: Glycylpeptide N-tetradecanoyltransferase (Neosartorya fumigata (strain ATCC MYA-4609 / Af293 / CBS 101355 / FGSCA1100) (Aspergillus fumigatus))
- Sequence (Q9UVX3 whole entry): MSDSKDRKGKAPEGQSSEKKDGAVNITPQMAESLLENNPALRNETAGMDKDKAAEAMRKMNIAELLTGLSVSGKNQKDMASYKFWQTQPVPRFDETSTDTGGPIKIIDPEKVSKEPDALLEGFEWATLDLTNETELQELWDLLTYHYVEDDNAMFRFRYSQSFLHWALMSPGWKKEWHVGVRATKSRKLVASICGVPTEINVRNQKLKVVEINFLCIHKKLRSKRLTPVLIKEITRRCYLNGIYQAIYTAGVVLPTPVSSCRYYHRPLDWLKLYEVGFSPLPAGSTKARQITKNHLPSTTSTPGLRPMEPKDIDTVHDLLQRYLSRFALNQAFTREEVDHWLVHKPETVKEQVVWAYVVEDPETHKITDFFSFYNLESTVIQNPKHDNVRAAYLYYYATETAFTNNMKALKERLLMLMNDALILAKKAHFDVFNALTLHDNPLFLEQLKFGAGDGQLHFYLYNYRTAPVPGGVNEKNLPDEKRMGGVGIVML
- EXPERIMENTAL DETAILS: Inhibition of recombinant Aspergillus fumigatus NMT (Gln86 to Leu492 residues) expressed in Escherichia coli BL21(DE3) pLysS cells using [3H]-myristoyl coenzyme A/CAP5.5 as substrate after 20 mins by scintillation proximity assay
MEASURE NAME: IC50

Looking up Cc1c(NS(=O)(=O)c2c(Cl)cc(-c3ccnc(N4CCNCC4)c3)cc2Cl)c(CC(C)C)nn1C , I see its IC50 listed as 12 nM

---

- TARGET OR TEST SYSTEM: Ubiquitin-like modifier-activating enzyme ATG7 (Homo sapiens, UniProt O95352)
- Sequence (O95352 whole entry): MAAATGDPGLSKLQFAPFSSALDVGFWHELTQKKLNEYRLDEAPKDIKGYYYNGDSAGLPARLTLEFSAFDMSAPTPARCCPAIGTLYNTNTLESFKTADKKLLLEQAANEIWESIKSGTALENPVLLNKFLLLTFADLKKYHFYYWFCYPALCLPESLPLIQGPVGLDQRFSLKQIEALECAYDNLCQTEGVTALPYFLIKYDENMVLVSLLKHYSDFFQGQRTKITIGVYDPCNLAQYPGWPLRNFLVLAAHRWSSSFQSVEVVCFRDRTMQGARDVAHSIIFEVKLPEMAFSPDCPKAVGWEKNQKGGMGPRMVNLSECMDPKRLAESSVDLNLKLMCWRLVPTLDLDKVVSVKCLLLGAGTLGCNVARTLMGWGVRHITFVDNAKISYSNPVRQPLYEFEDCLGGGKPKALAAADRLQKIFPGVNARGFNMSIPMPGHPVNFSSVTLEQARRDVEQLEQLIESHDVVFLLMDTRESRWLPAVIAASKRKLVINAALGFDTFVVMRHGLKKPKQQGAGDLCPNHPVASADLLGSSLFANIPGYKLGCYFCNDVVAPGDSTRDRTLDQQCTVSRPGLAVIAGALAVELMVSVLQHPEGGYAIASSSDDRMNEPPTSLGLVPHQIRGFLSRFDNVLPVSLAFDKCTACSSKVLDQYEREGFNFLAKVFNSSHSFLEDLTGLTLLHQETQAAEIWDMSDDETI
MEASURE NAME: IC50

Field IC50 (system: Ubiquitin-like modifier-activating enzyme ATG7 (Homo sapiens, UniProt O95352)) for entry NS(=O)(=O)OC[C@@H]1C[C@@H](n2ccc3c(N[C@H]4CCc5ccccc54)ncnc32)C[C@@H]1O = > 1 µM
